Origin of values: patent US20050060764A1

Tested on: mouse RANKL mRNA
assay.method.text: Antisense inhibition of mouse RANKL mRNA levels in C2C12 cells, quantitative real-time PCR (Table 2)
Format: cell-based
Set-up: concentration or dose not given beside the values
test.settings: averages from three experiments
Strand notation (5' to 3'): a small letter for the sugar, then the base; units joined by * are phosphorothioate-linked, units joined directly phosphodiester-linked; [ ] holds rarer units or linkages, { } end groups; capitals alone tell only the bases. e = 2'-O-(2-methoxyethyl) (MOE); [5mC] = 5-methylcytosine; d = 2'-deoxy (DNA)
readout.type: % INHIB (inhibition of mouse RANKL mRNA levels)

The cases that follow already have their % INHIB (inhibition of mouse RANKL mRNA levels) on record.
[
  {
    "substance": "gtcttacacatgtatagaca (antisense eG*eT*e[5mC]*eT*eT*dA*d[5mC]*dA*d[5mC]*dA*dT*dG*dT*dA*dT*eA*eG*eA*e[5mC]*eA) [ISIS 180814, 2′-MOE gapmer targeted to mouse RANKL]",
    "result": "at least 40%"
  },
  {
    "substance": "tcttcactctccagagtcga (antisense eT*e[5mC]*eT*eT*e[5mC]*dA*d[5mC]*dT*d[5mC]*dT*d[5mC]*d[5mC]*dA*dG*dA*eG*eT*e[5mC]*eG*eA) [ISIS 180803, 2′-MOE gapmer targeted to mouse RANKL]",
    "result": "at least 40%"
  },
  {
    "substance": "atgttccacgaaatgagtct (antisense eA*eT*eG*eT*eT*d[5mC]*d[5mC]*dA*d[5mC]*dG*dA*dA*dA*dT*dG*eA*eG*eT*e[5mC]*eT) [ISIS 180813, 2′-MOE gapmer targeted to mouse RANKL]",
    "result": "at least 40%"
  },
  {
    "substance": "tttattttgcttgcatagtt (antisense eT*eT*eT*eA*eT*dT*dT*dT*dG*d[5mC]*dT*dT*dG*d[5mC]*dA*eT*eA*eG*eT*eT) [ISIS 180828, 2′-MOE gapmer targeted to mouse RANKL]",
    "result": "at least 40%"
  }
]

Could you now look at the following substance, please?
The reported value for ggcttgcctcgctgggccac (antisense eG*eG*e[5mC]*eT*eT*dG*d[5mC]*d[5mC]*dT*d[5mC]*dG*d[5mC]*dT*dG*dG*eG*e[5mC]*e[5mC]*eA*e[5mC]) [ISIS 180805, 2′-MOE gapmer targeted to mouse RANKL] in terms of % INHIB (inhibition of mouse RANKL mRNA levels) is at least 40%

====

Test system: mouse RANKL mRNA
assay.method.text: Antisense inhibition of mouse RANKL mRNA levels in C2C12 cells, quantitative real-time PCR (Table 2)
Assay type: cell-based
Parameters: concentration or dose not given beside the values
test.settings: averages from three experiments
Description: Cells were seeded into 24-well plates (Falcon-353047 at a density of ˜10,000 cells/cm^2 for use in antisense oligonucleotide transfection. Cells are treated and data are obtained in triplicate. […] Cells were harvested 16-24 hours after oligonucleotide treatment. PCR reagents were obtained from Invitrogen Corporation, (Carlsbad, Calif.). […]
Strand notation (5' to 3'): a small letter for the sugar, then the base; units joined by * are phosphorothioate-linked, units joined directly phosphodiester-linked; [ ] holds rarer units or linkages, { } end groups; capitals alone tell only the bases. e = 2'-O-(2-methoxyethyl) (MOE); [5mC] = 5-methylcytosine; d = 2'-deoxy (DNA)
readout.type: % INHIB (inhibition of mouse RANKL mRNA levels)

[
  {
    "substance": "tgctccgcgatcgttctctc (antisense eT*eG*e[5mC]*eT*e[5mC]*d[5mC]*dG*d[5mC]*dG*dA*dT*d[5mC]*dG*dT*dT*e[5mC]*eT*e[5mC]*eT*e[5mC]) [ISIS 180792, 2′-MOE gapmer targeted to mouse RANKL]",
    "result": "at least 40%"
  },
  {
    "substance": "agctgaagatagtctgtagg (antisense eA*eG*e[5mC]*eT*eG*dA*dA*dG*dA*dT*dA*dG*dT*d[5mC]*dT*eG*eT*eA*eG*eG) [ISIS 180808, 2′-MOE gapmer targeted to mouse RANKL]",
    "result": "at least 40%"
  },
  {
    "substance": "ccgccgagcagactccgcca (antisense e[5mC]*e[5mC]*eG*e[5mC]*e[5mC]*dG*dA*dG*d[5mC]*dA*dG*dA*d[5mC]*dT*d[5mC]*e[5mC]*eG*e[5mC]*e[5mC]*eA) [ISIS 180791, 2′-MOE gapmer targeted to mouse RANKL]",
    "result": "at least 40%"
  }
]

====

Test system: mouse RANKL mRNA
assay.method.text: Antisense inhibition of mouse RANKL mRNA levels in C2C12 cells, quantitative real-time PCR (Table 2)
Type: cell-based
Set-up: concentration or dose not given beside the values
test.settings: averages from three experiments
Protocol: Cells were seeded into 24-well plates (Falcon-353047 at a density of ˜10,000 cells/cm^2 for use in antisense oligonucleotide transfection. Cells are treated and data are obtained in triplicate. […] Cells were harvested 16-24 hours after oligonucleotide treatment. PCR reagents were obtained from Invitrogen Corporation, (Carlsbad, Calif.). […]
Strand notation (5' to 3'): a small letter for the sugar, then the base; units joined by * are phosphorothioate-linked, units joined directly phosphodiester-linked; [ ] holds rarer units or linkages, { } end groups; capitals alone tell only the bases. e = 2'-O-(2-methoxyethyl) (MOE); [5mC] = 5-methylcytosine; d = 2'-deoxy (DNA)
readout.type: % INHIB (inhibition of mouse RANKL mRNA levels)

The cases that follow already have their % INHIB (inhibition of mouse RANKL mRNA levels) on record.
[
  {
    "substance": "atgctaatttcttcaccagc (antisense eA*eT*eG*e[5mC]*eT*dA*dA*dT*dT*dT*d[5mC]*dT*dT*d[5mC]*dA*e[5mC]*e[5mC]*eA*eG*e[5mC]) [ISIS 180811, 2′-MOE gapmer targeted to mouse RANKL]",
    "result": "at least 40%"
  },
  {
    "substance": "gcatcggaatacctctccca (antisense eG*e[5mC]*eA*eT*e[5mC]*dG*dG*dA*dA*dT*dA*d[5mC]*d[5mC]*dT*d[5mC]*eT*e[5mC]*e[5mC]*e[5mC]*eA) [ISIS 180817, 2′-MOE gapmer targeted to mouse RANKL]",
    "result": "at least 40%"
  },
  {
    "substance": "cagttccttctgcacggccc (antisense e[5mC]*eA*eG*eT*eT*d[5mC]*d[5mC]*dT*dT*d[5mC]*dT*dG*d[5mC]*dA*d[5mC]*eG*eG*e[5mC]*e[5mC]*e[5mC]) [ISIS 180804, 2′-MOE gapmer targeted to mouse RANKL]",
    "result": "at least 40%"
  },
  {
    "substance": "tctcggctggcccggcgcat (antisense eT*e[5mC]*eT*e[5mC]*eG*dG*d[5mC]*dT*dG*dG*d[5mC]*d[5mC]*d[5mC]*dG*dG*e[5mC]*eG*e[5mC]*eA*eT) [ISIS 180797, 2′-MOE gapmer targeted to mouse RANKL]",
    "result": "at least 40%"
  },
  {
    "substance": "ggattttgatgctggtttta (antisense eG*eG*eA*eT*eT*dT*dT*dG*dA*dT*dG*d[5mC]*dT*dG*dG*eT*eT*eT*eT*eA) [ISIS 180809, 2′-MOE gapmer targeted to mouse and rat RANKL]",
    "result": "at least 40%"
  }
]

Record for 180807 (antisense eA*eG*e[5mC]*eA*eA*dA*dT*dG*dT*dT*dG*dG*d[5mC]*dG*dT*eA*e[5mC]*eA*eG*eG) [compound 180807] under target or system mouse RANKL mRNA: % INHIB (inhibition of mouse RANKL mRNA levels) reported as 74%

Record for 180798 (antisense e[5mC]*e[5mC]*eT*eT*e[5mC]*dG*dT*dG*dT*dG*dG*dG*dA*d[5mC]*dG*e[5mC]*e[5mC]*eG*eG*eG) [compound 180798] under target or system mouse RANKL mRNA: % INHIB (inhibition of mouse RANKL mRNA levels) reported as 34%

Record for gctcgaaagtacaggaacag (antisense eG*e[5mC]*eT*e[5mC]*eG*dA*dA*dA*dG*dT*dA*d[5mC]*dA*dG*dG*eA*eA*e[5mC]*eA*eG) [ISIS 180802, 2′-MOE gapmer targeted to mouse and rat RANKL] under target or system mouse RANKL mRNA: % INHIB (inhibition of mouse RANKL mRNA levels) reported as at least 40%

Record for tcagaattgcccgaccagtt (antisense eT*e[5mC]*eA*eG*eA*dA*dT*dT*dG*d[5mC]*d[5mC]*d[5mC]*dG*dA*d[5mC]*e[5mC]*eA*eG*eT*eT) [ISIS 180810, 2′-MOE gapmer targeted to mouse RANKL] under target or system mouse RANKL mRNA: % INHIB (inhibition of mouse RANKL mRNA levels) reported as at least 40%

Record for tccggatccagcagggaagg (antisense eT*e[5mC]*e[5mC]*eG*eG*dA*dT*d[5mC]*d[5mC]*dA*dG*d[5mC]*dA*dG*dG*eG*eA*eA*eG*eG) [ISIS 180812, 2′-MOE gapmer targeted to mouse RANKL] under target or system mouse RANKL mRNA: % INHIB (inhibition of mouse RANKL mRNA levels) reported as at least 40%

Record for 180820 (antisense e[5mC]*eT*eT*eA*eT*dT*dT*dG*d[5mC]*dA*dG*dG*dT*d[5mC]*d[5mC]*e[5mC]*eA*eG*e[5mC]*eG) [compound 180820] under target or system mouse RANKL mRNA: % INHIB (inhibition of mouse RANKL mRNA levels) reported as 44%
